Target: Serotonin 2 receptors; 5-HT2a & 5-HT2c (Homo sapiens) (UniProt P28223+P28335)
Sequence (P28223 whole entry, looked up): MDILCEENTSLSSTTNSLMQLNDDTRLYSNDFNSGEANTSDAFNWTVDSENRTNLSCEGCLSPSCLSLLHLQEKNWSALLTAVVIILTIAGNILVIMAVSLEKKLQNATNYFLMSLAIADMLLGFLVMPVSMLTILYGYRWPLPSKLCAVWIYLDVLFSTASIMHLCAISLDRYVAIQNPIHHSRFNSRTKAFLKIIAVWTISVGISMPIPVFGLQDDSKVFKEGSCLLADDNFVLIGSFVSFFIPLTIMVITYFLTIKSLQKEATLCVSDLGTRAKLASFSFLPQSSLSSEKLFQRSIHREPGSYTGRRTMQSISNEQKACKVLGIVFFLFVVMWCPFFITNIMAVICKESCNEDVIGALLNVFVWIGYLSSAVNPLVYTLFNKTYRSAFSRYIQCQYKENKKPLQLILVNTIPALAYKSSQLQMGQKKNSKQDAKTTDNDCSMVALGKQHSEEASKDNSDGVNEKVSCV
Sequence (P28335 whole entry, looked up): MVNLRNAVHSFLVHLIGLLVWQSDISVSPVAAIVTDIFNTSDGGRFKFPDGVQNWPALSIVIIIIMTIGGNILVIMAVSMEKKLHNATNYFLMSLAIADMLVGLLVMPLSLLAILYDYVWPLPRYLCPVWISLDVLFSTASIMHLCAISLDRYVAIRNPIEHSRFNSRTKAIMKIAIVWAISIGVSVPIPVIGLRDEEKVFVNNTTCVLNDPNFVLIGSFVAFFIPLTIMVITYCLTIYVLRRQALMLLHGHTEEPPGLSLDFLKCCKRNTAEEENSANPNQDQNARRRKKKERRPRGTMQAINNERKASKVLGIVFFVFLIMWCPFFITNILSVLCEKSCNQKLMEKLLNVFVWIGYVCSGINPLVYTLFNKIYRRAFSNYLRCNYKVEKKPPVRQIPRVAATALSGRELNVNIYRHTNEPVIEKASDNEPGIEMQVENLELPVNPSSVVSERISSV
Test: Relative affinity for human 5-HT2C and 5-HT2A receptors
Type: protein assay
PROPERTY: Selectivity

Here is how some compounds turned out for Selectivity.
[[record]]
line_notation = "c1ccc2c(c1)cc1n2CCNC1"
measurement = 7.5

[[record]]
line_notation = "CN(C)CCn1ccc2cc(F)c(F)cc21"
measurement = 1.3

[[record]]
line_notation = "Clc1cccc2cc3n(c12)CCNC3"
measurement = 1.6

[[record]]
line_notation = "COc1c2n(c3ccc(Cl)cc13)CCNC2"
measurement = 5.5

[[record]]
line_notation = "CN(C)CCn1ccc2ccccc21"
measurement = 1.1


P = COc1cccc2cc3n(c12)CCNC3
Q = Clc1ccc2c(c1)cc1n2CCNC1
Smaller Selectivity value, P vs Q ? Choose, then provide that item's label.
Q

a = Clc1ccc2cc3n(c2c1)CCNC3
b = COc1ccc2c(c1)cc1n2CCNC1
Smaller Selectivity value, a vs b ? Choose, then provide that item's label.
a
